target: NIH-3T3 cells overexpressing human IR (Homo sapiens); assay: IR cellular autophosphorylation (DELFIA); details: 2 h compound, insulin 3 ug/ml for 15 minutes, IC50 category
pIC50: −log10 of the molar value.
Measured pIC50, listed per entry.

Examples with their reported pIC50 follow.
>  <Compound>
COc1cc(N2CCN(C(C)C)CC2)c(F)cc1Nc1nc(Nc2cccc(F)c2C(N)=O)c2cc[nH]c2n1

>  <Data value>
> 7.00

$$$$
>  <Compound>
CCC(C)N1CCc2cc(OC)c(Nc3nc(Nc4cccc(F)c4C(=O)NC)c4cc[nH]c4n3)cc2C1 (centres unmarked)

>  <Data value>
6.30 to 7.00

$$$$
>  <Compound>
COc1cc2c(cc1Nc1nc(Nc3cccc(F)c3C(N)=O)c3cc[nH]c3n1)N(C(=O)CN(C)C)[C@H](C)C2

>  <Data value>
6.30 to 7.00

$$$$
>  <Compound>
COc1cc(N2CCC(N3CCN(CCS(C)(=O)=O)CC3)CC2)ccc1Nc1nc(Nc2cccc(F)c2C(N)=O)c2cc[nH]c2n1

>  <Data value>
6.30 to 7.00

$$$$
>  <Compound>
COc1cc(N2CCN(C(C)C)CC2)ccc1Nc1nc(Nc2ccccc2C(N)=O)c2cc[nH]c2n1

>  <Data value>
6.30 to 7.00

$$$$
>  <Compound>
CCCN1CCC=C(c2ccc(Nc3nc(Nc4ccc(F)cc4C(N)=O)c4cc[nH]c4n3)c(OC)c2)C1

>  <Data value>
6.30 to 7.00

$$$$
>  <Compound>
COc1cc(N2CCCN(C(C)C)CC2)ccc1Nc1nc(Nc2cccc(F)c2C(N)=O)c2cc[nH]c2n1

>  <Data value>
6.30 to 7.00

$$$$
>  <Compound>
CNC(=O)c1c(F)cc(Cl)cc1Nc1nc(Nc2cc3c(cc2OC)CCCN3C(=O)CN2CCCC2)nc2[nH]ccc12

>  <Data value>
6.30 to 7.00

$$$$

Qu. Reported pIC50, compound COc1cc2c(cc1Nc1nc(Nc3cccc(F)c3C(N)=O)c3cc[nH]c3n1)N(C(=O)CCN1CCN(C(C)C)CC1)CC2 : ____
Ans. < 6.30

Qu. # repeat for COc1cc2c(cc1Nc1nc(Nc3cc(F)cc(F)c3C(N)=O)c3cc[nH]c3n1)CN(CCF)CC2
Ans. < 6.30

Qu. Subsequent entry: COc1cc(C)c(NC(=O)CN(C)C)cc1Nc1nc(Nc2cccc(F)c2C(N)=O)c2cc[nH]c2n1
Ans. > 7.00

* * *

System: ALK (Homo sapiens) | Read-out: IC50
Sequence (Q9UM73 19-1620): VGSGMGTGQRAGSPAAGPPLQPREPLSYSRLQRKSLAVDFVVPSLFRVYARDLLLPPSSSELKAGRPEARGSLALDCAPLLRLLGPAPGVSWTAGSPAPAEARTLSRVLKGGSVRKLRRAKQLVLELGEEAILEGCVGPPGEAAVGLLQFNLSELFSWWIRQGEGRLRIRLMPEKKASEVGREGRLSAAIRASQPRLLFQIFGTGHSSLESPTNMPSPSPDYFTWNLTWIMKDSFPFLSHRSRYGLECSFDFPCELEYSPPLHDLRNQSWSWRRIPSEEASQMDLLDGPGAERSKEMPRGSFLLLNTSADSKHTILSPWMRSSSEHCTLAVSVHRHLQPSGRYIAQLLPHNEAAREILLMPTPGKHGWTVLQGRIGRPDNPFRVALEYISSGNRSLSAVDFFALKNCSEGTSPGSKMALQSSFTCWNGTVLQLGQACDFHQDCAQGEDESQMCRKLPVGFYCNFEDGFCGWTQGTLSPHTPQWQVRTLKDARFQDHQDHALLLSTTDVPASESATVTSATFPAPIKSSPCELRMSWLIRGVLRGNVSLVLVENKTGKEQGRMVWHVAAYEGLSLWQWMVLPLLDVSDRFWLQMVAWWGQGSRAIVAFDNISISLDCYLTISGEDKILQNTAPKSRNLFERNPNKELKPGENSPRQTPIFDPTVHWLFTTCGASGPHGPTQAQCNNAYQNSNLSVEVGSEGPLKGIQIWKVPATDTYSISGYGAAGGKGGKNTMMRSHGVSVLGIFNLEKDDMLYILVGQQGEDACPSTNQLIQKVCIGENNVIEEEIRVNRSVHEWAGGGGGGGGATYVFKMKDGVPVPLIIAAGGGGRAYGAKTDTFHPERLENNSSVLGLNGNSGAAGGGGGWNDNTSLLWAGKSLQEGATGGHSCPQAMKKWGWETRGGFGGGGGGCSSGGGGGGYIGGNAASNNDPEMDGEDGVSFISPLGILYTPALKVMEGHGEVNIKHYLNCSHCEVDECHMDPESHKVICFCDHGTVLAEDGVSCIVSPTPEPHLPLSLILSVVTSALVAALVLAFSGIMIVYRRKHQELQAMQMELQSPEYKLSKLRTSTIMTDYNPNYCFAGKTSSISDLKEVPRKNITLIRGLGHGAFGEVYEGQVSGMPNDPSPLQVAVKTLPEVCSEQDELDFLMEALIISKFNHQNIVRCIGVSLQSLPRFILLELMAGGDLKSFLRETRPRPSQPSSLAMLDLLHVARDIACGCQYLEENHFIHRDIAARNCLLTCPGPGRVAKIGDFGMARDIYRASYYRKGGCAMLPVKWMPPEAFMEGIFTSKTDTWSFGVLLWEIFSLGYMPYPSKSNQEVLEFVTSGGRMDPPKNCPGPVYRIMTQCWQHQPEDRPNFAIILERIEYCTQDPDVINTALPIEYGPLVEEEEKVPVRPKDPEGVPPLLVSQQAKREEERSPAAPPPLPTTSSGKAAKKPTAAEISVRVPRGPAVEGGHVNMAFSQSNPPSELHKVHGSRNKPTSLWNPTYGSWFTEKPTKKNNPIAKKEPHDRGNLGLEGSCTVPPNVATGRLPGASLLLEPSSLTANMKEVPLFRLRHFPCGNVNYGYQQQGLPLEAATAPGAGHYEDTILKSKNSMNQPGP

In the examples that follow, each entry is paired with its recorded IC50.
>  <Compound>
CCCN1CCC=C(c2ccc(Nc3nc(Nc4cc(F)ccc4C(=O)N[C@@H](C)CC)c4cc[nH]c4n3)c(OC)c2)C1 [Example 87]

>  <IC50>
0.251 to 1 nM

$$$$
>  <Compound>
COc1cc(C2=CCCN(C(C)C)C2)ccc1Nc1nc(Nc2cc(F)c(F)cc2C(N)=O)c2cc[nH]c2n1 [Example 96]

>  <IC50>
0.251 to 1 nM

$$$$
>  <Compound>
COc1cc2c(cc1Nc1nc(Nc3cccc(F)c3C(N)=O)c3cc[nH]c3n1)NCC2 [Example 140]

>  <IC50>
5.01 to 200 nM

$$$$
>  <Compound>
CNCC(=O)N1CCc2cc(OC)c(Nc3nc(Nc4cccc(F)c4C(N)=O)c4cc[nH]c4n3)cc21 [Example 142]

>  <IC50>
1.26 to 3.98 nM

$$$$

Qu. What value of IC50 on ALK (Homo sapiens) does COc1cc(N2CCN(C(C)C)CC2)c(OC)cc1Nc1nc(Nc2cccc(F)c2C(N)=O)c2cc[nH]c2n1 [Example 47] have?
Ans. 1.26 to 3.98 nM

Qu. Field entry: CNC(=O)c1c(Nc2nc(Nc3cc4c(cc3OC)CCCN4C(=O)CN(C)C)nc3[nH]ccc23)ccc(F)c1F [Example 163]
Ans. 1.26 to 3.98 nM

Qu. Now try COc1cc2c(cc1Nc1nc(Nc3cccc(F)c3C(N)=O)c3cc[nH]c3n1)N(C(=O)N(C)C)CC2 [Example 146] .
Ans. 5.01 to 200 nM

Qu. Again, but for Cc1ccc(NC(=O)CN(C)C)cc1Nc1nc(Nc2ccccc2C(=O)NCc2ccc(F)cc2)c2cc[nH]c2n1 [Example 27]
Ans. 5.01 to 200 nM

Qu. Continue with CCN(C)CC(=O)N1CCc2cc(OC)c(Nc3nc(Nc4cccc(F)c4C(N)=O)c4cc[nH]c4n3)cc21 [Example 166]
Ans. 1.26 to 3.98 nM

Qu. Now the same for CNC(=O)c1c(F)cccc1Nc1nc(Nc2cc(N(C)C(=O)CN(C)C)ccc2OC)nc2[nH]ccc12 [Example 242]
Ans. 5.01 to 200 nM

* * *

target: human IGF1R (hIGF1R) (Homo sapiens); construct: containing amino acid residues 957-1367 of human IGF1R; made in house; host or cells: Sf9 cells (baculovirus); experiment: TR-FRET kinase assay of purified hIGF1R; assay type: biochemical; conditions: activated hIGF1R 0.5 nM, 10 μM ATP, values given as pIC50 category, read-out: IGF-1R pIC50 (converted)
Readout label: IC50

Completed entries (count: 3):
>  <Molecule>
Cc1ccc(NC(=O)CN2CCCC2)cc1Nc1nc(Nc2ccccc2C(N)=O)c2cc[nH]c2n1 [Example 14]

>  <IC50>
1.26 to 3.98 nM

$$$$
>  <Molecule>
CNC(=O)c1c(F)cccc1Nc1nc(Nc2cc3c(cc2Cl)CCN3C(=O)CN(C)C)nc2[nH]ccc12 [Example 131]

>  <IC50>
1.26 to 3.98 nM

$$$$
>  <Molecule>
COc1cc(N2CCC(O)CC2)ccc1Nc1nc(Nc2cc(F)c(F)cc2C(N)=O)c2cc[nH]c2n1 [Example 99]

>  <IC50>
0.251 to 1 nM

$$$$

Would you kindly look at the next entry?
Qu. I would be grateful if you could share the reported IC50 for COc1cc(N2CCC(N3CCCCC3)CC2)ccc1Nc1nc(Nc2cc(F)c(F)cc2C(N)=O)c2cc[nH]c2n1 [Example 100] .
Ans. 0.251 to 1 nM

* * *

pIC50 by entry:
target: NIH-3T3 cells overexpressing human IR (Homo sapiens, UniProt P06213); experiment: IR cellular autophosphorylation (DELFIA); details: 2 h compound, insulin 3 ug/ml for 15 minutes, IC50 category
Sequence (P06213 28-1382): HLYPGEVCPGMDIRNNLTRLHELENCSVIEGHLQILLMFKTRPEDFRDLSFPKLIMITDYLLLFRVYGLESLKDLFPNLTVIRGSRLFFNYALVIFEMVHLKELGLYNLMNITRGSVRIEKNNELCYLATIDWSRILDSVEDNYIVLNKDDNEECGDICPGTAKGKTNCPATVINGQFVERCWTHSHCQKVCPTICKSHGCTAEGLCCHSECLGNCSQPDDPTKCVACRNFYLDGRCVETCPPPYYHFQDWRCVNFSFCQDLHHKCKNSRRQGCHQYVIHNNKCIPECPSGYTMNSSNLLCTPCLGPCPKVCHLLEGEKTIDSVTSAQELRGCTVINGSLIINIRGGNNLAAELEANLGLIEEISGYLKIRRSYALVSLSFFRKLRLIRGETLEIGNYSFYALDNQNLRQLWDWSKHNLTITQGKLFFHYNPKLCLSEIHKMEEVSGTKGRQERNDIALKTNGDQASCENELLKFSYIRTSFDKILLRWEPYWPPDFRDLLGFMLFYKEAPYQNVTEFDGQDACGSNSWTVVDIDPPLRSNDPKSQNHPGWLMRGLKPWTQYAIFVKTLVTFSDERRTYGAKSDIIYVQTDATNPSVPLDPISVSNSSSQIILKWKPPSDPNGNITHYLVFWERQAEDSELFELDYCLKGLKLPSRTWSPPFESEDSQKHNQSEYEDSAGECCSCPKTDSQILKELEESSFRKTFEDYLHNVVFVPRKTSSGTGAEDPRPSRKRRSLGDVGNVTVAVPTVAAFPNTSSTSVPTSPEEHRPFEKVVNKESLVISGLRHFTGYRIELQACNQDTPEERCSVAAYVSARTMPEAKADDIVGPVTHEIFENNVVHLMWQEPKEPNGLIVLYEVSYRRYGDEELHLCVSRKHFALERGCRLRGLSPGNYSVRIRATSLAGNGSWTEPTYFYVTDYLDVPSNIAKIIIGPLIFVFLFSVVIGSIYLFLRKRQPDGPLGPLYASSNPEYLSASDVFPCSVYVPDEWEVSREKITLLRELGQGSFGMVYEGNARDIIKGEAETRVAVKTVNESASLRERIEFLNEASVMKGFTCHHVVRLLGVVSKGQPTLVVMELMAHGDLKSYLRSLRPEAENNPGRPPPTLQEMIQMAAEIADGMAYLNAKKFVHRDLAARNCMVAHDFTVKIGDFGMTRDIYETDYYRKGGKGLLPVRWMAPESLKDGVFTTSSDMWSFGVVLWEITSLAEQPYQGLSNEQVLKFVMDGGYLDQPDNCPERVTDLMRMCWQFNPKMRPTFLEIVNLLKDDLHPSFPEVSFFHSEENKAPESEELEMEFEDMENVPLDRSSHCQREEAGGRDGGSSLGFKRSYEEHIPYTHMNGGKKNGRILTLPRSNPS
pIC50: −log10 of the molar value.

Worked cases, pIC50 given:
>  <Smiles>
COc1cc(N2CCOC[C@@H]2C)ccc1Nc1nc(Nc2cc(F)cc(F)c2C(N)=O)c2cc[nH]c2n1

>  <Readout label>
pIC50

>  <Data value>
> 7.00

$$$$
>  <Smiles>
CCCN1CCC=C(c2ccc(Nc3nc(Nc4cc5ccccc5cc4C(N)=O)c4cc[nH]c4n3)c(OC)c2)C1

>  <Readout label>
pIC50

>  <Data value>
6.30 to 7.00

$$$$
>  <Smiles>
CCCN1CCC(N2CCc3cc(OC)c(Nc4nc(Nc5cccc(F)c5C(N)=O)c5cc[nH]c5n4)cc3C2)CC1

>  <Readout label>
pIC50

>  <Data value>
> 7.00

$$$$

Qu. Suppose we examine the compound COc1cc(N2CCN(C(C)C)CC2)c(OC)cc1Nc1nc(Nc2cc(F)ccc2C(N)=O)c2cc[nH]c2n1 ; what pIC50 value has been reported?
Ans. 6.30 to 7.00

Qu. Okay, and CCN(C)CC(=O)N1CCCc2cc(OC)c(Nc3nc(Nc4cccc(F)c4C(=O)NC)c4cc[nH]c4n3)cc21 ?
Ans. > 7.00

Qu. Do the same for CCCN(C)CC(=O)N1CCc2cc(OC)c(Nc3nc(Nc4cccc(F)c4C(N)=O)c4cc[nH]c4n3)cc21 please
Ans. > 7.00

* * *

biological target: human IGF1R (hIGF1R) (Homo sapiens, UniProt P08069); construct: containing amino acid residues 957-1367 of human IGF1R; made in house; host or cells: Sf9 cells (baculovirus); assay: TR-FRET kinase assay of purified hIGF1R; type: biochemical; settings: activated hIGF1R 0.5 nM, 10 μM ATP, values given as pIC50 category, read-out: IGF-1R pIC50 (converted)
Sequence (P08069 957-1367): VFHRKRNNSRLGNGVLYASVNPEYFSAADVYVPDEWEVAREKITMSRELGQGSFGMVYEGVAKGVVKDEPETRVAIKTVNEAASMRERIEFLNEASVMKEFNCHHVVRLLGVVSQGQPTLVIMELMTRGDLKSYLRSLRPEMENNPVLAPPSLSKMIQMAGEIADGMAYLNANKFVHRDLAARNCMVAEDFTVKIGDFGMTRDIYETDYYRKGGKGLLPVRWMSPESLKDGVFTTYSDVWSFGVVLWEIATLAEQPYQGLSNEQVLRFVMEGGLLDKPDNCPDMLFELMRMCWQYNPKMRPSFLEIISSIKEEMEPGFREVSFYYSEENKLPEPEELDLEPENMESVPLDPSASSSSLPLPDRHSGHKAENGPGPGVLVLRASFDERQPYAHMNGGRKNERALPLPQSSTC
Consider the following compounds and their measured IC50 readings.

Recorded results for 6 compounds are shown here.
>  <Smiles>
COc1cc(N2CCC(N3CCOCC3)CC2)ccc1Nc1nc(Nc2cc(F)ccc2C(N)=O)c2cc[nH]c2n1

>  <IC50>
0.251 to 1 nM

$$$$
>  <Smiles>
COc1cc(N2CCOC[C@@H]2C)ccc1Nc1nc(Nc2ccc(F)cc2C(N)=O)c2cc[nH]c2n1

>  <IC50>
1.26 to 3.98 nM

$$$$
>  <Smiles>
CNCC(=O)N1CCc2cc(OC)c(Nc3nc(Nc4cccc(F)c4C(N)=O)c4cc[nH]c4n3)cc21

>  <IC50>
1.26 to 3.98 nM

$$$$
>  <Smiles>
CCN(C)CC(=O)N1CCCc2cc(OC)c(Nc3nc(Nc4cccc(F)c4C(=O)NC)c4cc[nH]c4n3)cc21

>  <IC50>
5.01 to 200 nM

$$$$
>  <Smiles>
COc1cc(N2CCN(C(C)C)CC2)c(OC)cc1Nc1nc(Nc2cccc(F)c2C(N)=O)c2cc[nH]c2n1

>  <IC50>
1.26 to 3.98 nM

$$$$
>  <Smiles>
CCOc1cc2c(cc1Nc1nc(Nc3cccc(F)c3C(=O)NC)c3cc[nH]c3n1)N(C(=O)CN(C)C)CCC2

>  <IC50>
1.26 to 3.98 nM

$$$$

Now, please, on to the next compound.
Qu. Item CNC(=O)c1cc2ccccc2cc1Nc1nc(Nc2cc3c(cc2OC)CCN3C(=O)CN(C)C)nc2[nH]ccc12 has what recorded IC50?
Ans. 0.251 to 1 nM
